Provide the reported Ki of each item.
- Measured Target: WDR5 (Homo sapiens (Human), UniProt P61964)
- Assay Text: TR-FRET binding assay, displacement of 10mer-Thr-FAM probe from His-tagged WDR5
- Measurement Conditions: Inhibition of WDR5 by TR-FRET assay
Numbers only, in nM.

QUERY: Would you kindly share the measured Ki for COc1ccnc(CNC(=O)c2cc(C)c(OC)c(Cn3ccnc3C)c2)c1 ?
RESULT: 500

QUERY: Would you kindly share the measured Ki for Cc1ccnc(C(NC(=O)c2cc(Cn3ccnc3)cc(-c3ccc(F)cc3Cl)n2)C2CC2)c1 (centres unmarked) ?
RESULT: 5.71

QUERY: Would you kindly share the measured Ki for COc1cc(OC)cc(C(C)NC(=O)c2cc(CNC3=NCCC3)cc(-c3ccc(F)nc3C)c2)c1 (centres unmarked) ?
RESULT: 11

Hi! Can you tell me Ki for each of these molecules?
1. Cc1cnccc1-c1cc(CNC2=NCCN2)cc(C(=O)NCc2ccc(Cl)c(Cl)c2)n1
2. COc1ccnc(CNC(=O)c2cc(CNC3=NCCC3)cc(-c3ccc(F)nc3C)c2)c1
3. Cc1cc(CNC(=O)c2cc(CNC3=NC(=O)CN3C)cc(-c3ccc(F)nc3C)c2)ccc1Cl

RESULT:
0.15
0.53
6.6

====

- Measured Target: WDR5 (Homo sapiens (Human), UniProt P61964)
- Assay Text: Fluorescence polarization anisotropy (FPA) competition assay, displacement of FITC-MLL or 10mer-Thr-FAM peptide
- Assay type: binding
- Measurement Conditions: Inhibition of WDR5 by FPA assay
- From the text: The assay is run in 384-well format and is read on a BioTek Cytation. […] Replicate values are fit to a 4-parameter fit in XLFit to generate a single IC50 value for each compound that is then converted to a Ki value. Experiments are repeated to generate a 2nd, independent Ki value; values from the two experiments are averaged to produce the reported Ki value for the compound.
Endpoint Name: log10(Ki) (log10 of the value in nM)
Parameter value (number): base-10 log of Ki in nM.

Use these answered entries as a reference point.
QUERY: Would you kindly share the measured log10(Ki) for O=C(NCc1cc(Cl)cc(Cl)c1)c1cc(Cl)cc(Cn2ccnc2)c1 ?
RESULT: 1.53

QUERY: Would you kindly share the measured log10(Ki) for CCC(NC(=O)c1cc(Cn2ccnc2)cc(-c2ccc(F)cc2Cl)n1)C1CC1 (stereo not drawn) ?
RESULT: 1.12

Hi! Can you tell me log10(Ki) for each of these compounds?
1. Cc1cccc(CNC(=O)c2cc(Cn3ccnc3)cc(-c3ccc(F)cc3Cl)n2)n1
2. COc1cc(OC)cc(C(C)NC(=O)c2cc(Cn3ccnc3)cc(-c3ccc(F)cc3Cl)n2)c1 (stereo not drawn)
3. COc1cc(CNC(=O)c2cc(Cn3ccnc3)cc(-c3ccoc3C)c2)cc(OC)c1
4. Cc1cc(C)cc(CNC(=O)c2cc(Cn3ccnc3)cc(-c3ccc(F)cc3Cl)n2)c1
5. Cc1cc(CNC(=O)c2cc(Cn3ccnc3)cc(OC3CCCC3)c2)ccc1Cl
6. O=C(NCc1ccc(Cl)c(Cl)c1)c1cc(Cn2ccnc2)cc(N2CCCC2)c1

RESULT:
[0.94, 0.71, 0.32, 0.68, 0.54, 0.81]

Hi! Can you tell me log10(Ki) for each of these compounds?
1. COc1cc(CNC(=O)c2cc(CNC3=NCCN3)cc(-c3ccc(F)cc3Cl)c2)cc(OC)c1
2. Cc1ccnc(C(NC(=O)c2cc(Cn3ccnc3)cc(-c3ccc(F)cc3Cl)n2)C2CC2)c1 (stereo not drawn)
3. Cc1nc(F)ccc1-c1cc(Cn2ccnc2)cc(C(=O)NC(C2CC2)C2CC2)c1

RESULT:
0.43
0.04
0.54

Hi! Can you tell me log10(Ki) for each of these compounds?
1. Cc1nc(F)ccc1-c1cc(Cn2ccnc2)cc(C(=O)NC(C)C2CCCCC2)c1 (stereo not drawn)
2. CC(C)(NC(=O)c1cc(Cn2ccnc2)cc(-c2ccc(F)cc2Cl)n1)C1CC1
3. COc1cc(CNC(=O)c2cc(Cn3ccnc3)cc(Oc3ccccc3)c2)cc(OC)c1
4. COc1cncc(-c2cc(Cn3ccnc3)cc(C(=O)NCc3ccc(Cl)c(Cl)c3)c2)c1
5. Cc1ccncc1-c1cc(Cn2ccnc2)cc(C(=O)NCc2ccc(Cl)c(Cl)c2)c1
6. Cc1cc(-c2cc(Cn3ccnc3)cc(C(=O)NCc3ccc(Cl)c(Cl)c3)c2)ccn1
7. O=C(NC(C1CC1)C1CC1)c1cc(CNC2=NCCN2)cc(-c2ccc(F)cc2Cl)c1
8. COc1cc(Cn2ccnc2)cc(C(=O)NCc2ccc(Cl)c(C)c2)c1

RESULT:
0.59
0.93
0.71
0.34
0.11
0.94
0.78
2.15

====

- Measured Target: WDR5 (Homo sapiens (Human), UniProt P61964)
- Assay Text: Fluorescence polarization anisotropy (FPA) competition assay, displacement of FITC-MLL or 10mer-Thr-FAM peptide
- Format: binding
- Measurement Conditions: Table B2, WDR5 WIN-site binding affinity; values not less than 1 nM (FPA)
Provide the reported Ki of each item.
One number for each entry, in nM.

QUERY: Would you kindly share the measured Ki for COc1cc(OC)cc(C(C)NC(=O)c2cc(CNC3=NCCN3)c(F)cc2F)c1 (stereo not drawn) ?
RESULT: 1.06

QUERY: Would you kindly share the measured Ki for COc1ccc(C(=O)NCc2cc(Cl)ccn2)cc1CNC1=NCCN1 ?
RESULT: 1.39

QUERY: Would you kindly share the measured Ki for COc1ccc(CNC(=O)c2ccc(F)c(CNC3=NCCN3)c2)cc1OC ?
RESULT: 8.06

QUERY: Would you kindly share the measured Ki for COc1cc(OC)cc(C(C)NC(=O)c2ccc(F)c(CNC3=NCCN3)c2)c1 (stereo not drawn) ?
RESULT: 1.81

The record that follows has no Ki shown yet.
QUERY: Would you kindly share the measured Ki for COc1cc(CNC(=O)c2ccc(OC)c(CNC3=NCCN3)c2)ccc1Cl ?
RESULT: 24.5

====

- Measured Target: WDR5 (Homo sapiens (Human), UniProt P61964)
- Assay Text: TR-FRET binding assay, displacement of 10mer-Thr-FAM probe from His-tagged WDR5
- Measurement Conditions: Inhibition of WDR5 by TR-FRET assay
Provide the reported Ki of each item.
One number for each entry, in nM.

Use these answered entries as a reference point.
QUERY: Would you kindly share the measured Ki for COc1cc(OC)cc(C(C)NC(=O)c2cc(CNC3=NC(=O)CN3C)cc(-c3ccc(F)nc3C)c2)c1 (centres unmarked) [Example 44] ?
RESULT: 17

QUERY: Would you kindly share the measured Ki for COc1cc(CNC(=O)c2cc(CNC3=NCCC3)cc(-c3ccc(F)nc3C)c2)cc(OC)c1 [Example 60] ?
RESULT: 0.55

QUERY: Would you kindly share the measured Ki for COc1ccnc(CNC(=O)c2cc(CNC3=NCCN3)cc(-c3cc(C(C)C)ccc3OC)c2)c1 [Example 45] ?
RESULT: 1.01

QUERY: Would you kindly share the measured Ki for Cc1nc(F)ccc1-c1cc(Cn2ccnc2C2CC2)cc(C(=O)NCc2ccc(Cl)c(Cl)c2)c1 [Example 139] ?
RESULT: 1.6

QUERY: Would you kindly share the measured Ki for COc1ccc(CNC(=O)c2cc(CNC3=NCCN3)cc(-c3ccnc(C)c3)c2)cc1Cl [Example 23] ?
RESULT: 1.3

QUERY: Would you kindly share the measured Ki for COc1ccnc(CNC(=O)c2cc(CNC3=NCCN3)cc(-c3ccc(F)nc3C)c2)c1 [Example 11] ?
RESULT: 0.22

Hi! Can you tell me Ki for each of these compounds?
1. Cc1cc(-c2cc(CNC3=NCCN3)cc(C(=O)NCc3cc(Cl)ccn3)c2)ccn1 [Example 22]
2. Cc1cc(-c2cc(CNC3=NCCN3)cc(C(=O)NCc3ccc(Cl)cn3)c2)ccn1 [Example 27]

RESULT:
1. 0.28
2. 1.5

====

- Measured Target: UniProtKB P61964
- Assay Text: TR-FRET binding assay, displacement of 10mer-Thr-FAM probe from His-tagged WDR5
pKi: −log10 of the molar value.
Please use 1 whenever pKi is not below 10, and -1 whenever it is.

Record excerpt, results attached:
QUERY: Would you say O=C(NCc1ccc(Cl)c(Cl)c1)c1cc(CNC2=NCCN2)ccc1F shows pKi at minimum 10?
RESULT: -1

QUERY: Would you say O=C(NCc1ccc(Cl)c(Cl)c1)c1cc(CNC2=NCCN2)cc(-c2ccc(F)nc2F)n1 shows pKi at minimum 10?
RESULT: -1

# input for lookup
QUERY: Would you say COc1cc(CNC(=O)c2cc(CNC3=NCCN3)cc(-c3cc(C)cnc3F)c2)cc(OC)c1 shows pKi at minimum 10?
RESULT: 1

====

- Measured Target: WDR5 (Homo sapiens (Human))
- Assay Text: TR-FRET binding assay, displacement of 10mer-Thr-FAM probe from His-tagged WDR5
- Measurement Conditions: Inhibition of WDR5 by TR-FRET assay
Endpoint Name: log10(Ki) (log10 of the value in nM)
Parameter value (number): base-10 log of Ki in nM.

Use these answered entries as a reference point.
QUERY: Given the entry Cc1cnc(F)c(-c2cc(CNC3=NCCN3)cc(C(=O)N(C)C)c2)c1 , what log10(Ki) was observed with WDR5 (Homo sapiens (Human))?
RESULT: 1.81

QUERY: Given the entry Cc1ccc(CNC(=O)c2cc(CNC3=NCCN3)cc(-c3ccnc(C)c3)c2)cn1 , what log10(Ki) was observed with WDR5 (Homo sapiens (Human))?
RESULT: 0.48

QUERY: Given the entry COc1cc(OC)cc(C(C)NC(=O)c2cc(CNC3=NCCN3)cc(-c3cnccc3C)c2)c1 (stereo not shown) , what log10(Ki) was observed with WDR5 (Homo sapiens (Human))?
RESULT: -0.22

QUERY: Given the entry Cc1ccnc(C(NC(=O)c2cc(Cn3ccnc3)cc(-c3ccc(F)nc3C)c2)C2CC2)c1 (stereo not shown) , what log10(Ki) was observed with WDR5 (Homo sapiens (Human))?
RESULT: 0.30

QUERY: Given the entry Cc1cccc(CNC(=O)c2cc(Cn3ccnc3)cc(-c3ccc(F)cc3Cl)n2)n1 , what log10(Ki) was observed with WDR5 (Homo sapiens (Human))?
RESULT: 1.51

Hi! Can you tell me log10(Ki) for each of these compounds?
1. COc1cc(OC)cc(C(C)NC(=O)c2cc(CNC3=NCCC3)cc(-c3ccc(F)cc3C(F)(F)F)n2)c1 (stereo not shown)
2. COc1ccnc(CNC(=O)c2cc(CNC3=NCCN3)cc(-c3ccc(F)cc3OC)c2)c1
3. Cc1cnc(CNC(=O)c2cc(CNC3=NCCN3)cc(-c3ccc(F)nc3C)n2)nc1
4. COc1ccc(CNC(=O)c2cc(CNC3=NCCN3)cc(-c3cnccc3C)c2)cc1Cl
5. COc1cc(CNC(=O)c2cc(CNC3=NCCN3)cc(-c3ccc(F)cc3C)c2NC(C)=O)cc(OC)c1
6. COc1cc(OC)cc(C(C)NC(=O)c2cc(Cn3ccnc3C)cc(-c3ccc(F)nc3C)n2)c1 (stereo not shown)
7. COc1cc(CN(C)C(=O)c2cc(CNC3=NCCN3)cc(-c3ccc(F)nc3C)c2)cc(OC)c1
8. COc1cc(CNC(=O)c2cc(CNC3=NCCC3)cc(-c3ccncc3C)c2)cc(OC)c1

RESULT:
0.52
-0.52
1.52
-0.13
0.86
0.59
1.08
0.26

Hi! Can you tell me log10(Ki) for each of these compounds?
1. Cc1cc(CNC(=O)c2cc(CNC3=NCCN3)cc(-c3ccc(F)nc3C)n2)ccc1Cl
2. Cc1cc(C)cc(CNC(=O)c2cc(CNC3=NCCN3)cc(-c3ccc(F)nc3C)c2)c1

RESULT:
1: -0.34; 2: -0.85

The values you see were collected from patent US10807959B2.
